Cited source for all entries: paper PMC10397247

Molecular target: T1, 4H40-bH
T1 chain: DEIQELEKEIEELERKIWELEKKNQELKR
Assay: two-hybrid library CCNG1;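 also: natural log of median RNA to DNA barcode read ratio; higher means stronger binding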
API: label(entry) gives 1 (yes) if the entry's interaction score is strictly smaller than -0.9; on equality or larger values it gives 0 (no).

# binder, discrete_label
data = [
    ("DEIQELEKKIEELKRENWELKKENQELKR [4H348-bH]", "0 (no)"),
    ("DKNQELEKENEELKREIWELKKKIQELER [4H3277-bH]", "0 (no)"),
    ("DKIQELEKEIEELKRENWELKKKNQELER [4H2143-bH]", "0 (no)"),
    ("DKIQELEKKNEELEREIWELEKKIQELKR [4H2438-bH]", "0 (no)"),
    ("DKIQELKKKNEELKRKNWELEKEIQELER [4H3057-bH]", "1 (yes)"),
    ("DKIQELKKENEELEREIWELEKENQELKR [4H2692-bH]", "0 (no)"),
    ("DEIQELEKENEELERKNWELEKKIQELKR [4H182-bH]", "0 (no)"),
    ("DEIQELEKEIEELKRKNWELKKEIQELER [4H121-bH]", "1 (yes)"),
    ("DKIQELKKENEELKREIWELEKKNQELKR [4H2760-bH]", "1 (yes)"),
    ("DKIQELKKKIEELKRKIWELEKENQELER [4H2915-bH]", "1 (yes)"),
    ("DKIQELKKENEELERENWELKKKIQELER [4H2717-bH]", "0 (no)"),
    ("DKIQELEKKNEELKREIWELEKKNQELER [4H2503-bH]", "1 (yes)"),
    ("DEIQELEKEIEELERKIWELEKKNQELKR [4H40-bH]", "0 (no)"),
]
